This collection of values is drawn from ChEMBL document CHEMBL1132659.

# assay.target: GABA-A receptor; alpha-1/beta-2/gamma-2 (Homo sapiens) (UniProt P14867+P47870+P18507)
# experimental.details: Modulatory activity against human GABA-A receptor alpha-1-beta-2-gamma-2 subunits expressed in Xenopus laevis Oocytes at 50 uM
# Format: cell-based
Parameter: Activity. Scope: all listed entries.

CCCN(CCC)C(=O)Cc1c(-c2ccc(Cl)cc2)nc2c(Cl)cccn12	-6.1
CCCCN(CCCC)C(=O)Cc1c(-c2ccc(Cl)cc2)nc2ccccn12	< 35
CCCN(CCC)C(=O)Cc1c(-c2ccc(Cl)cc2)nc2c(C)cccn12	< -38.7
CCCN(CCC)C(=O)Cc1c(-c2ccccc2)nc2ccc(C(=O)OC)cn12	11.4
CCCCN(CCCC)C(=O)Cc1c(-c2ccccc2)nc2ccccn12	< 44.6

Pending compound:
Q) State the recorded Activity for this entry: CCC(C)N(C)C(=O)c1cc2ccccc2c(-c2ccccc2Cl)n1 (stereo unspecified) [PK-11195]
A) 4.3

* * *

# assay.target: Translocator protein (Rattus norvegicus)
# experimental.details: Displacement of [3H]-PK 11195 from peripheral-type benzodiazepine receptor of rat ovary membranes
# Format: cell membranes, Female gonad, Membrane
quantity.name: log10 IC50 (log10 of the value in nM)
log10 IC50, nM

Examples from the recorded data:
CCCCNC(=O)Cc1c(-c2ccccc2)nc2c(Cl)cc(Cl)cn12	2.59
CCCCN(CCCC)C(=O)Cc1c(-c2ccccc2)nc2ccccn12	1.36
CCN(CC)C(=O)Cc1c(-c2ccccc2)nc2ccccn12	2.72
CCCN(CCC)C(=O)Cc1c(-c2ccc(Cl)cc2)nc2c(Cl)cccn12	0.87
CCCN(CCC)C(=O)Cc1c(-c2ccccc2)nc2ccc([N+](=O)[O-])cn12	0.89

Q) Give the measured log10 IC50 of CCCN(CCC)C(=O)Cc1c(-c2ccc(Cl)cc2)nc2c(NC)cccn12 .
A) 0.90

Q) Given CCCN(CCC)C(=O)Cc1c(-c2ccc(Cl)cc2)nc2c(Cl)cc(C(F)(F)F)cn12 , state its recorded log10 IC50.
A) 0.45

* * *

# assay.target: UniProt:P16257
# experimental.details: Displacement of [3H]-PK 11195 from peripheral-type benzodiazepine receptor of rat cerebral cortex membranes
# Type: cell membranes, Membrane
quantity.name: pIC50
Hey, just a heads up that pIC50 is the negative log base 10 of the concentration in molar.

Completed entries (count: 9):
CCCN(CCC)C(=O)Cc1c(-c2ccc(Cl)cc2)nc2c(Cl)cc(C(F)(F)F)cn12	8.74
CCCN(CCC)C(=O)Cc1c(-c2ccccc2)nc2ccc(C(=O)OC)cn12	7.78
CCCNC(=O)Cc1c(-c2ccccc2)nc2ccccn12	5.70
CCCN(CCC)C(=O)Cc1c(-c2ccc(Cl)cc2)nc2c(NC)cccn12	8.43
CCCCCCN(CCCCCC)C(=O)Cc1c(-c2ccccc2)nc2ccccn12	7.72
CCCN(CCC)C(=O)Cc1c(-c2ccc(Cl)cc2)nc2c([N+](=O)[O-])cccn12	8.24
CCCCN(CCCC)C(=O)Cc1c(-c2ccc(Cl)cc2)nc2ccccn12	8.23
CCCN(CCC)C(=O)Cc1c(-c2ccccc2)nc2c(NC(C)=O)cccn12	6.59
CCCN(CCC)C(=O)Cc1c(-c2ccccc2)nc2ccccn12	7.00

Then this compound:
Q) Entry under review: CCCN(CCC)C(=O)Cc1c(-c2ccccc2)nc2ccc([N+](=O)[O-])cn12 . Reported pIC50?
A) 8.12

* * *

# assay.target: GABA-A receptor; alpha-1/beta-2/gamma-2 (Homo sapiens) (UniProt P14867+P47870+P18507)
# experimental.details: Modulatory activity against human GABA-A receptor alpha-1-beta-2-gamma-2 subunits expressed in Xenopus laevis Oocytes at 100 uM
# Assay type: cell-based
The entries below are paired with their reported Activity.
Give only the figure.

CCC(C)N(C)C(=O)c1cc2ccccc2c(-c2ccccc2Cl)n1 (stereo unspecified) [PK-11195]	91
CCCN(CCC)C(=O)Cc1c(-c2ccccc2)nc2ccc(C(=O)OC)cn12	11.6

Q) Which Activity value belongs to CCCN(CCC)C(=O)Cc1c(-c2ccc(Cl)cc2)nc2c(Cl)cccn12 ?
A) -15.2

* * *

# assay.target: GABA-A receptor; anion channel
# experimental.details: Affinity benzodiazepine receptor as ability to displace [3H]flunitrazepam from binding to membrane preparations from rat cerebral cortex.
# Assay type: tissue-based
Each entry falls in a class defined on pIC50; the bands are low class (below 4), middle class (4 to below 5), high class (5 or more)

Q) Bin this entry: CCCN(CCC)C(=O)Cc1c(-c2ccccc2)nc2c(C)cccn12
A) middle class

Q) Which class does CCC(C)N(C)C(=O)c1cc2ccccc2c(-c2ccccc2Cl)n1 (configuration not stated) fall in?
A) middle class

Q) Record CCCN(CCC)C(=O)Cc1c(-c2ccc(Cl)cc2)nc2c(C)cccn12 — which class?
A) low class

Q) Form: Item = CCCN(CCC)C(=O)Cc1c(-c2ccc(Cl)cc2)nc2ccccn12 ; Class = ?
A) high class

Q) Quick check: band for CCCN(CCC)C(=O)Cc1c(-c2ccccc2)nc2c(N)cccn12
A) high class

Q) In plain terms, what class is CCCN(CCC)C(=O)Cc1c(-c2ccccc2)nc2ccc([N+](=O)[O-])cn12 ?
A) high class

Q) Determine which band this molecule sits in: CCCN(CCC)C(=O)Cc1c(-c2ccc(Cl)cc2)nc2c(Cl)cc(Cl)cn12
A) low class

Q) Hello team, could you let me know which band the following molecule falls into: CCCN(CCC)C(=O)Cc1c(-c2ccccc2)nc2c(OC)cccn12
A) high class

Q) Using the reported pIC50, which band applies to CCCN(CCC)C(=O)Cc1c(-c2ccc(Cl)cc2)nc2c(Cl)cccn12 ?
A) low class

Q) Classify this molecule: CCCCN(CCCC)C(=O)Cc1c(-c2ccc(Cl)cc2)nc2ccccn12
A) high class

Q) Hi there! Could you help me figure out the category for CCCN(CCC)C(=O)Cc1c(-c2ccccc2)nc2c(Cl)cc(Cl)cn12 please?
A) low class

Q) Class for CCCNC(=O)Cc1c(-c2ccccc2)nc2ccccn12 ?
A) high class

Q) Note: place this molecule into its band. Item: CCCN(CCC)C(=O)Cc1c(-c2ccccc2)nc2c(Cl)cccn12
A) middle class

Q) State the band of CCCN(CCC)C(=O)Cc1c(-c2ccccc2)nc2c(C)cc(Br)cn12
A) middle class

Q) Bin? CCCN(CCC)C(=O)Cc1c(-c2ccc(Cl)cc2)nc2c(OC)cccn12
A) middle class

Q) Which band does CCCCCCN(CCCCCC)C(=O)Cc1c(-c2ccc(Cl)cc2)nc2ccccn12 fall in?
A) low class

Q) Textbook exercise: identify the category of the molecule given here, CCN(CC)C(=O)Cc1c(-c2ccccc2)nc2ccccn12 , according to its measured value.
A) high class

Q) State the class of the molecule shown: CCCCN(CCCC)C(=O)Cc1c(-c2ccccc2)nc2ccccn12
A) high class

Q) Could you place CCCN(CCC)C(=O)Cc1c(-c2ccccc2)nc2c([N+](=O)[O-])cccn12 in its proper category? Many thanks.
A) middle class

Q) # bin lookup: classify CCCN(CCC)C(=O)Cc1c(-c2ccccc2)nc2ccc(C(N)=O)cn12 by its pIC50
A) high class

Q) Bin? CCCNC(=O)Cc1c(-c2ccc(Cl)cc2)nc2ccccn12
A) high class

Q) Could you place CCCN(CCC)C(=O)Cc1c(-c2ccccc2)nc2ccccn12 in its proper category? Many thanks.
A) high class

* * *

# assay.target: Translocator protein (Rattus norvegicus, UniProt P16257)
# Sequence (P16257 whole entry, looked up): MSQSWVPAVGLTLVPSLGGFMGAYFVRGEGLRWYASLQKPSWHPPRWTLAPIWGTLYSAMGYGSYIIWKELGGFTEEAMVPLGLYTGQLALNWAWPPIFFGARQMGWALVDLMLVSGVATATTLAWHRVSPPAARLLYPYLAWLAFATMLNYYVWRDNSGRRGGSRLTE
# experimental.details: Displacement of [3H]-PK 11195 from peripheral-type benzodiazepine receptor of rat cerebral cortex membranes
# Format: cell membranes, Membrane
quantity.name: pIC50
The value called pIC50 is obtained by taking minus log10 of the concentration in mol/L.

Before answering, review these 5 worked examples.
CCCN(CCC)C(=O)Cc1c(-c2ccc(Cl)cc2)nc2ccccn12	8.00
CCCCN(CCCC)C(=O)Cc1c(-c2ccccc2)nc2ccccn12	7.77
CCCN(CCC)C(=O)Cc1c(-c2ccccc2)nc2c([N+](=O)[O-])cccn12	7.07
CCCN(CCC)C(=O)Cc1c(-c2ccc(Cl)cc2)nc2c(Cl)cc(Cl)cn12 [ALPDEM]	9.00
CCCN(CCC)C(=O)Cc1c(-c2ccc(Cl)cc2)nc2c(NC(C)=O)cccn12	8.00

Q) Any idea what pIC50 was measured for CCCN(CCC)C(=O)Cc1c(-c2ccccc2)nc2c(Cl)cc(Cl)cn12 ?
A) 8.52

Q) I'd like to know its pIC50. The compound in question is CCCN(CCC)C(=O)Cc1c(-c2ccccc2)nc2c(OC)cccn12
A) 7.33

Q) Recorded pIC50 of CCCN(CCC)C(=O)Cc1c(-c2ccccc2)nc2c(C)cccn12 , please.
A) 7.70

Q) Could you share which pIC50 value was measured for CCCN(CCC)C(=O)Cc1c(-c2ccccc2)nc2c(N)cccn12 ?
A) 8.37

Q) Recorded pIC50 of CCCN(CCC)C(=O)Cc1c(-c2ccc(Cl)cc2)nc2c(Br)cc(Br)cn12 , please.
A) 9.10

Q) Reported pIC50, compound CCN(CC)C(=O)Cc1c(-c2ccccc2)nc2ccccn12 : ____
A) 6.36
